Tested on: Klebsiella pneumoniae
Settings: Concentration 20 uM; ASSAY_TEST Inhibition of Bacterial Growth; detection method Absorption (OD600); MEDIA CAMHB; plate type 384well; NBS; CORNING #3640; time 18 hr
Description: Antibacterial activity against Klebsiella pneumoniae MDR ATCC 70063 (CO-ADD:GN_003); MIC in CAMBH media using NBS plates, by OD(600)
Measured potencies and affinities stand elsewhere.
Quantity Measured: Inhibition (%)

{"columns": ["Compound", "Reading"],
 "data": [
  ["CCC(=O)[N-]S(=O)(=O)c1ccc(-c2c(-c3ccccc3)noc2C)cc1.[Na+] [PARECOXIB SODIUM]", 7.5],
  ["CN(C)CC[C@@H](c1ccc(Cl)cc1)c1ccccn1.O=C(O)/C=C\\C(=O)O [DEXCHLORPHENIRAMINE MALEATE]", 21.61],
  ["CC1(C)S[C@@H]2[C@H](/N=C/N3CCCCCC3)C(=O)N2[C@H]1C(=O)O", 18.13],
  ["CCN(CC)CCOC(=O)C1(C2CCCCC2)CCCCC1.Cl [DICYCLOMINE HYDROCHLORIDE]", 5.74]
]}

###

System: Cryptococcus neoformans
Conditions: Concentration 20 uM; ASSAY_TEST Inhibition of Fungal Growth; detection method Resazurin; Absorption (OD600-OD570); plate type 384well; NBS; CORNING #3640
Description: Antifungal activity against Cryptococcus neoformans H99 ATCC 208821 (CO-ADD:FG_002); MIC in YNB media using NBS plates, by Resazurin OD(600-570)
Potency and affinity values are given separately.
Each entry below lists one item and its recorded Inhibition value.

{"columns": ["Compound", "Tested System", "Inhibition"],
 "data": [
  ["CC(C)(C)NCC(O)COc1cccc2c1CC(O)C(O)C2 (centres undefined)", "Cryptococcus neoformans", "-8.66%"],
  ["OCc1cccnc1", "Cryptococcus neoformans", "-7.14%"],
  ["CCCCc1nc(Cl)c(CO)n1Cc1ccc(-c2ccccc2-c2nnn[n-]2)cc1.[K+]", "Cryptococcus neoformans", "-3.04%"],
  ["Nc1nc(N)c2nc(-c3ccccc3)c(N)nc2n1", "Cryptococcus neoformans", "1.8%"],
  ["C[C@@H]1O[C@@H](OC[C@H]2O[C@@H](Oc3c(-c4ccc(O)c(O)c4)oc4cc(O)cc(O)c4c3=O)[C@H](O)[C@@H](O)[C@@H]2O)[C@H](O)[C@H](O)[C@H]1O", "Cryptococcus neoformans", "-5.7%"],
  ["COC(=O)[C@H](c1ccccc1Cl)N1CCc2sccc2C1", "Cryptococcus neoformans", "-8.15%"],
  ["Nc1ncnc2c1ncn2[C@@H]1O[C@H](CO)[C@@H](O)[C@@H]1O", "Cryptococcus neoformans", "1.72%"],
  ["C=CCc1ccc(O)c(-c2ccc(O)c(CC=C)c2)c1", "Cryptococcus neoformans", "0.25%"],
  ["O=c1cnn([C@@H]2O[C@H](CO)[C@@H](O)[C@H]2O)c(=O)[nH]1", "Cryptococcus neoformans", "7.24%"]
]}

###

Test system: Klebsiella pneumoniae
Details: Concentration 20 uM; ASSAY_TEST Inhibition of Bacterial Growth; detection method Absorption (OD600); MEDIA CAMHB; plate type 384well; NBS; CORNING #3640; time 18 hr
Measured potencies and affinities stand elsewhere.
Each entry below lists one item and its recorded Inhibition value.

{"columns": ["Compound", "Tested System", "Unit Of Measure", "Inhibition"],
 "data": [
  ["CCCSc1ccc2[nH]c(NC(=O)OC)nc2c1", "Klebsiella pneumoniae", "%", 3.18],
  ["CC(C(=O)[O-])c1ccc(CC2CCCC2=O)cc1.[Na+] (centres undefined) [LOXOPROFEN SODIUM]", "Klebsiella pneumoniae", "%", 6.48],
  ["C[C@]12C=CC(=O)C=C1CC[C@@H]1[C@@H]2[C@@H](O)C[C@@]2(C)[C@H]1CC[C@]2(O)C(=O)COC(=O)CCC(=O)[O-].[Na+] [PREDNISOLONE SODIUM SUCCINATE]", "Klebsiella pneumoniae", "%", 6.54],
  ["Cl.O=C(O)/C=C/c1ccc(Cn2ccnc2)cc1", "Klebsiella pneumoniae", "%", 3.67]
]}
